- Tested on: human sputum elastase-induced lung hemorrhage in hamsters
- procedure.summary: Elastase-induced pulmonary damage (lung hemorrhage) in hamsters
- Type: in vivo, hamster
- condition.context: 100 μg/site intratracheal, 5 min predose
endpoint.label: % inhibition of elastase-induced lung hemorrhage (%)
I only need the number, in %, no unit after it.

Name the recorded % inhibition of elastase-induced lung hemorrhage for CC(C)C(NC(=O)[C@@H]1CCCN1C(=O)[C@@H](NC(=O)c1ccc(C(=O)NCCN2CCOCC2)cc1)C(C)C)C(=O)C(F)(F)F.Cl (mixture of isomers) .
100.0

Name the recorded % inhibition of elastase-induced lung hemorrhage for CC(C)C(NC(=O)[C@@H]1CCCN1C(=O)[C@@H](NC(=O)c1ccc(C(=O)NCC(=O)O)cc1)C(C)C)C(=O)C(F)(F)F (mixture of isomers) [Example 13] .
100.0

Name the recorded % inhibition of elastase-induced lung hemorrhage for CC(C)C(NC(=O)[C@@H]1CCCN1C(=O)[C@@H](NC(=O)c1ccc(C(=O)NCCCC(=O)O)cc1)C(C)C)C(=O)C(F)(F)F (mixture of isomers) .
104.7

Name the recorded % inhibition of elastase-induced lung hemorrhage for CC(C)C(NC(=O)CN(C(=O)[C@@H](NC(=O)c1ccc(C(=O)NCC(=O)O)cc1)C(C)C)C1Cc2ccccc2C1)C(=O)C(F)(F)F (mixture of isomers) .
99.8

Name the recorded % inhibition of elastase-induced lung hemorrhage for CC(C)C(NC(=O)CN(C(=O)[C@@H](NC(=O)c1ccc(C(=O)NCCN2CCOCC2)cc1)C(C)C)C1Cc2ccccc2C1)C(=O)C(F)(F)F (mixture of isomers) .
69.4

Name the recorded % inhibition of elastase-induced lung hemorrhage for CC(C)C(NC(=O)[C@@H]1CCCN1C(=O)[C@@H](NC(=O)c1ccc(C(=O)NCC(=O)O)cc1)C(C)C)C(=O)C(F)(F)F (mixture of isomers) [Example 19] .
105.2
